measurement.protocol: in vitro
Type: cell-based
test.readout: EC50 (µg/mL)

N=C(N)NCCCCC(=O)Nc1ccc(-c2nnc(-c3ccc(NC(=O)CCCCNC(=N)N)cc3)o2)cc1 : 212

I: N=C(N)NCCSc1cc(SCCNC(=N)N)c(C(F)(F)F)cc1NC(=O)c1cc(C(=O)Nc2cc(C(F)(F)F)c(SCCNC(=N)N)cc2SCCNC(=N)N)ncn1
II: NCCCc1cccc(-c2cncc(-c3ccc(-c4cncc(-c5cccc(CCCN)c5)c4)s3)c2)c1
Task: Short answer wanted: higher EC50, I or II ? Mark your selection by writing its label.
Output: I

* * *

Test system: P. falciparum 3D7 (chloroquine-sensitive)
measurement.protocol: Anti-malarial activity, P. falciparum 3D7 culture, 72 hour, DNA content by flow cytometry
Format: cell-based
condition: synchronized ring-stage parasites
test.readout: IC50 (nM)

Some compounds with recorded IC50:
CC(C)(C)c1cc(NC(=O)c2cccc(C(=O)Nc3cc(C(C)(C)C)cc(NC(=O)C(N)Cc4ccccc4)c3SCCN)c2)c(SCCN)c(NC(=O)C(N)Cc2ccccc2)c1 (centres unmarked) : 438
Cn1c(-c2ccc(CCCNC(=N)N)cc2)cnc1-c1ccc(CCCNC(=N)N)cc1 : 29
N=C(N)NCCCCC(=O)Nc1cc(C(F)(F)F)cc(NC(=O)c2cc(C(=O)Nc3cc(C(F)(F)F)cc(NC(=O)CCCCNC(=N)N)c3SCCN)[nH]n2)c1SCCN : 870
O=C(Nc1ccc(OC2CCNCC2)cc1)c1cc(C(=O)Nc2ccc(OC3CCNCC3)cc2)ncn1 : 10
N=C(N)N1CCC(Oc2ccc(NC(=O)Nc3ccc(OC4CCN(C(=N)N)C4)c(C(F)(F)F)c3)cc2C(F)(F)F)C1 (centres unmarked) : 29
CCN(CC)CCN(CCN)c1c(Cl)cc(C(F)(F)F)cc1NC(=O)Nc1cc(C(F)(F)F)cc(Cl)c1N(CCN)CCN(CC)CC : 320

1: N=C(N)NCCSc1ccc(NC(=O)Nc2ccc(SCCCN)c(C(F)(F)F)c2)cc1C(F)(F)F
2: CC(C)(C)c1ccc(NC(=O)CCCCNC(=N)N)c(-c2ccc(-c3cc(C(C)(C)C)ccc3NC(=O)CCCCNC(=N)N)cc2)c1
3: CC(=O)Nc1cc(C(C)(C)C)cc(NC(=O)c2cccc(C(=O)Nc3cc(C(C)(C)C)cc(NC(C)=O)c3SCCN)c2)c1SCCN
4: CN(C)CCSc1ccc(NC(=O)c2cc(C(=O)Nc3ccc(SCCN(C)C)cc3)ncn2)cc1
Task: Given 4 compounds, produce a descending ranking by IC50. Write out the labels following the order that was asked for.
Output: 1, 2, 3, 4

Ref: patent US20150094294A1
